The entries below are paired with their reported Specific signal at 500 pg/mL.
Target: T1, recombinant purified FRα (ECL assay calibrator) (human, UniProt P15328 25-234)
T1 construct: Calibrator of the ECL sandwich assays; also called FRα calibrator; FRα standard
T1 sequence (P15328 25-234 limits assumed): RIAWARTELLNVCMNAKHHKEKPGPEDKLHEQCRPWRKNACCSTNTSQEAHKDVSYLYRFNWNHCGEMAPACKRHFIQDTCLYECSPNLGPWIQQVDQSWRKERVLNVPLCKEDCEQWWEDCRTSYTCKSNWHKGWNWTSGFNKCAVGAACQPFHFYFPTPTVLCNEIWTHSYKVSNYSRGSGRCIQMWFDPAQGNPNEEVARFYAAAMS
Test: ECL sandwich, FRα calibrator; capture 24H8.D3; binder = detection Ab
A bare number is all that is needed in reply.

Monoclonal antibody 24H8.F3 (antibody, mouse IgG1, V domains shown, Murine IgG1 kappa from hybridoma; also called ATCC PTA-123097) VH: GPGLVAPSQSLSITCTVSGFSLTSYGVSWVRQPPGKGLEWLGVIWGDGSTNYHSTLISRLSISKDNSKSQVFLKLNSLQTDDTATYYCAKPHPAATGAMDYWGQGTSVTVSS VL: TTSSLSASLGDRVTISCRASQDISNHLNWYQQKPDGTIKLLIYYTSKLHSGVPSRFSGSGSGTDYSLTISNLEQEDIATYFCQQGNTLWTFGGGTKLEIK : 158
Monoclonal antibody 24H8.D3 (antibody, mouse IgG1, V domains shown, Biotin-conjugated when used as capture antibody in the ECL assay; also called ATCC PTA-123090) VH: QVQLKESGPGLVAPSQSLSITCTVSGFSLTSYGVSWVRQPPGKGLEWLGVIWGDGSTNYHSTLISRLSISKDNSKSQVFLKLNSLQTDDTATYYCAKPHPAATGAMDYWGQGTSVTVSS VL: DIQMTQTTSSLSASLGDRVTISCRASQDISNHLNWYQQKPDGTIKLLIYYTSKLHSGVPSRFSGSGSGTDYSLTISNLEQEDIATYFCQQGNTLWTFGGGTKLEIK : 69

Moving on to another binder below.
Ask: Return reported Specific signal at 500 pg/mL; argument: Monoclonal antibody 26A9.C4 (antibody, mouse IgG1, V domains shown, Murine IgG1 kappa from hybridoma; also called ATCC PTA-123092) VH: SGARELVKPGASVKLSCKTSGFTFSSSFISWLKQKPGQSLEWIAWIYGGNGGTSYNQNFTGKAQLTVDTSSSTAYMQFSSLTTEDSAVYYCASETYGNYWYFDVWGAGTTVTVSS VL: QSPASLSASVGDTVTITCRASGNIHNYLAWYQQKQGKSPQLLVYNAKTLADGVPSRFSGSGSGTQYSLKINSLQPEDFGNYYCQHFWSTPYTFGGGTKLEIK
Result: 59
